# TEST DETAILS: clinical
# Design: species or system human (patients with solid tumours)
# DETAILS: human, in vivo, po, 2.3 mg, AUC0-t
ASSAY ENDPOINT: AUC0-t (ng·h/mL)
Report only the number, with the unit ng·h/mL understood.

Would you mind telling me what AUC0-t value was observed for CC[C@@]1(O)C(=O)OCc2c1cc1n(c2=O)Cc2cc3c(CN(C)C)c(O)ccc3nc2-1 ?
19.6

----------
# TEST DETAILS: clinical
# Assay type: in vivo, human (patients with solid tumours)
# DETAILS: human, in vivo, iv, 1.5 mg, Cmax
# Description: Topotecan (Hycamtin) is one of the prototypes of a promising new class of cytotoxic drugs that act through inhibition of topoisomerase I. Topoisomerase I is a nuclear enzyme that relieves the torsional strain in DNA ahead of the moving replication fork (Hsiang et al, 1988, 1989). […] A phase I study has determined the maximum tolerated dose (MTD) for oral topotecan to be 2.3 mg m-2 for the daily times five dosing schedule (Gerrits et al, 1998). […]
ASSAY ENDPOINT: Cmax (µg/mL)
Report only the number, with the unit µg/mL understood.

Would you mind telling me what Cmax value was observed for CC[C@@]1(O)C(=O)OCc2c1cc1n(c2=O)Cc2cc3c(CN(C)C)c(O)ccc3nc2-1 [topotecan, Topotecan] ?
0.0339
